Origin of measurements: ChEMBL document CHEMBL4392832

- test.protocol: Total drug level in Sprague-Dawley rat brain at 0.2 mg/kg, iv via cassette dosing measured after 0.25 hrs by LC-MS/MS analysis
- Assay type: ADME, organism-based
- test.context: read-out: Drug uptake
quantity.name: concentration at 0.25 h (nM)
Express it in nM; write the number only.

# input compound: COc1ccc(-c2nnc(-c3cc(OC(F)(F)F)ccc3-n3ccnc3)o2)cc1OC ; wanted: its concentration at 0.25 h
456

====

- assayed.target: Metabotropic glutamate receptor 6 (Homo sapiens, UniProt O15303)
- Sequence (O15303 whole entry): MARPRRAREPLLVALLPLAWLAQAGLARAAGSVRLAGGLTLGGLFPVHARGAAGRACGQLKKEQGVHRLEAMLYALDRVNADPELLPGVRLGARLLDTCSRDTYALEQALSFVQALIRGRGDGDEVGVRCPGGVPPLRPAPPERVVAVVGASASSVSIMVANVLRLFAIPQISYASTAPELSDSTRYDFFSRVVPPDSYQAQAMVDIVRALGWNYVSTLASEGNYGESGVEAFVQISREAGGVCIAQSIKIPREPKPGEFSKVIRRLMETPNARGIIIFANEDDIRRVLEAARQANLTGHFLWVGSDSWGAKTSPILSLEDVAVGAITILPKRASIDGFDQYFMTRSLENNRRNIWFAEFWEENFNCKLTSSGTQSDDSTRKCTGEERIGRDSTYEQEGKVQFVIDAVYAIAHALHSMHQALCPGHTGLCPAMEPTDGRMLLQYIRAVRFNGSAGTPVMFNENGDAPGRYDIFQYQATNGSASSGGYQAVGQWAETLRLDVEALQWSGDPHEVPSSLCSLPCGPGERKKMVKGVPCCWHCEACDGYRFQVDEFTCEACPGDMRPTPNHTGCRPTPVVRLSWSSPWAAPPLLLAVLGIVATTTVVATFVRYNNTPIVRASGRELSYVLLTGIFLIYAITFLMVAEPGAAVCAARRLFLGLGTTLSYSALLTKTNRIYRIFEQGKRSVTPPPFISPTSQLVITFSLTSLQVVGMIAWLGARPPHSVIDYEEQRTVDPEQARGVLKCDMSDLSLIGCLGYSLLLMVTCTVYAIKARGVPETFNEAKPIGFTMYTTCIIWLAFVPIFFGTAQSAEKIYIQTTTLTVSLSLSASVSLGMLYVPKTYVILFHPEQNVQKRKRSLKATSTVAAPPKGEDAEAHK
- test.protocol: Negative allosteric modulation of mGlu6 receptor (unknown origin)
pIC50: −log10 of the molar value.
quantity.name: pIC50

# input compound: COc1ccc(-c2nnc(-c3cc(OC(F)(F)F)ccc3-n3ccnc3)o2)cc1OC ; wanted: its pIC50
< 5.00
